compounds and their reported pKi
Target chain: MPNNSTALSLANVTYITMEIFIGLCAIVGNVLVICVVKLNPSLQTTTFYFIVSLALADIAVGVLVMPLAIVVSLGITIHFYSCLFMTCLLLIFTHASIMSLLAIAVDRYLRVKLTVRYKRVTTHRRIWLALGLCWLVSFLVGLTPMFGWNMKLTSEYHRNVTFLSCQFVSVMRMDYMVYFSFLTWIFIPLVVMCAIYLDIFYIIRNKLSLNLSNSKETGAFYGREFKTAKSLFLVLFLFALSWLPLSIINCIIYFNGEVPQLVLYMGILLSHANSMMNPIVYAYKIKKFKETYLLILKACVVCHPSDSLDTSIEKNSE
pKi: −log10 of the molar value.

# Smiles Str, pKi
data = [
    ("CCC(=O)N1Cc2nc(-c3ccccc3)nn2-c2cc(C)ccc21", 8.19),
    ("CCC(=O)N1Cc2nc(-c3ccc(OC)cc3)nn2-c2cc(C)ccc21", 7.60),
    ("COC(=O)N1Cc2nc(-c3ccccc3)nn2-c2ccccc21", 6.61),
    ("Clc1ccc2ncc3nc(-c4ccccc4)nn3c2c1", 7.82),
    ("CCOC(=O)N1Cc2nc(-c3ccccc3)nn2-c2cc(C)ccc21", 7.90),
    ("CCC(=O)N1Cc2nc(-c3ccccc3)nn2-c2cc(Cl)ccc21", 7.14),
]

Origin of the recorded values: ChEMBL document CHEMBL3352157
